Cited source: BigSolDB 2.1

Conditions: in acetone, 328.15 K
endpoint_label: solubility (mole fraction)
Give bare numbers.

Prompt: Recorded solubility (mole fraction) for Cc1nc2n(c(=O)c1CCN1CCC(c3noc4cc(F)ccc34)CC1)CCCC2O (stereo unspecified) , please?
Response: 0.000702

---

Conditions: in 1,4-dioxane, 323.15 K
endpoint_label: solubility (mole fraction)
Numbers only.

Prompt: Recorded solubility (mole fraction) for Cc1nc2n(c(=O)c1CCN1CCC(c3noc4cc(F)ccc34)CC1)CCCC2O (stereo unspecified) , please?
Response: 0.00382

---

Settings: in ethanol, 303.15 K
endpoint_label: solubility (mole fraction)
Numbers only.

Prompt: Recorded solubility (mole fraction) for Cc1nc2n(c(=O)c1CCN1CCC(c3noc4cc(F)ccc34)CC1)CCCC2O (stereo unspecified) , please?
Response: 0.000178
